System: HL-60
Assay: NCI tumour cell line growth inhibition, 48 h
The source made the active and inactive calls. No stated cut-off is given here; in the data, active = GI50 up to about 1.1 µM and inactive = higher.
Endpoint: GI50

Specify measured GI50 for c1ccc2c(c1)SCCC2NC1=NCCO1 (centres undefined) . > 100 µM (inactive)

In one line, give reported GI50 of the entry CC(=O)OC1O[C@@H](C(C)(C)O)CC[C@@H]1[C@H]1CC[C@@]2(C)C3=C(CC[C@]12C)[C@@]1(C)C[C@@H](OC(=O)CC(C)(O)CC(=O)O)[C@H](OC(C)=O)C(C)(C)C1CC3 (some centres undefined) . 24.4 µM (inactive)

Hello, please tell me recorded GI50 for this one: "COc1ccc2[nH]c3c(C)c4cc[n+](C)cc4c(C)c3c2c1" 22 µM (inactive)

Provide one value: measured GI50 of "CC[C@H]1CN2CCc3cc(OC)c(OC)cc3[C@@H]2C[C@@H]1C[C@H]1NCCc2cc(OC)c(OC)cc21" 0.0148 µM (active)

Specify measured GI50 for CCOC(OCC)(OCC)C(Br)CC (centres undefined) . > 100 µM (inactive)

Return GI50 for the following compound: N#Cc1ccccc1NC(=O)C(O)C(O)C(O)C(O)C=O (centres undefined) > 100 µM (inactive)

Fill in reported GI50 for this entry: "O=C(O)c1c(-c2cccc3ccccc23)sc(-c2cccc3ccccc23)c1C(=O)O" > 100 µM (inactive)

Using the record for COC(=O)/C=C\[C@H]1[C@H](C)N1S(=O)(=O)c1ccc(C)cc1 (some centres undefined) , state its measured GI50. > 100 µM (inactive)

For the compound CC1(C)[C@@H]2C[C@H]1C(Cc1cccc(C[C@H]3c4cc(-c5ccccn5)ncc4[C@H]4C[C@@H]3C4(C)C)c1)c1cc(-c3ccccn3)ncc12 (some centres undefined) , report GI50. 0.295 µM (active)

====

Tested on: LXFL 529
Assay: NCI tumour cell line growth inhibition, 48 h
Activity calls are given as the source filed them. No stated cut-off is given here; in the data, active = GI50 up to about 1.1 µM and inactive = higher.
# valid calls are active, inactive; nothing else

For [O-][S+](Cc1cc2c(cc1Br)OCO2)c1ccccc1 (centres undefined) , what call appears in the results of this test? inactive

Lab log entry: "CC(=O)OCc1ncccc1C(OC(C)=O)OC(C)=O" — outcome as called in the assay? inactive

Look up the recorded call for Cc1cc(=O)oc2c(C3=NN(C=O)C(c4ccccc4)C3)c(O)ccc12 (centres undefined) in this test. inactive

How was N=C(N)NCCCC(NCc1c2ccccc2[n+]([O-])c2ccccc12)C(=O)O (centres undefined) classified in this test? inactive

Any idea what this test logged for Cc1cccc(C)c1NC(=O)CCCC(=O)C(C#N)c1ccccc1 (centres undefined) ? inactive

Kindly provide the recorded test outcome for the following compound: CC1CCC2[C@@H](C)COC3O[C@]4(C)CCC1C32OO4 (some centres undefined) inactive

// return assay outcome for "Cc1nc(C(=O)O)c2ccccc2n1" inactive

Short answer needed: outcome of this test for "CCc1cc(C)cc2[n+]1CC=C2C.[O-][Cl+3]([O-])([O-])[O-]" ? inactive

How did this test come out for CCN(CC)C1CC(O[C@H]2C[C@](O)(C(=O)CO)Cc3c(O)c4c(c(O)c32)C(=O)c2c(OC)cccc2C4=O)OC(C)C1O (some centres undefined) ? active

====

System: UACC-62
Assay: NCI tumour cell line growth inhibition, 48 h
Calls of active or inactive are those of the source. No stated cut-off is given here; in the data, active = GI50 up to about 1.1 µM and inactive = higher. Bridge positions count the residues as written; N and C are the ends. Peptide text beside a SMILES is read from it. * marks the point of attachment. Cbz = O=C(OCc1ccccc1)*
Would you kindly list GI50 for each of these compounds?

Please report GI50 for the following compound: "COC(=O)c1ccccc1NCc1cc(O)ccc1O" 18.2 µM (inactive)

Name the recorded GI50 of the item O=C1C2CCN(CC2)C1CN1CCOCC1 (stereo not given) in your answer. 16.1 µM (inactive)

Quickly give me recorded GI50 for "COC(=O)C1=C(C)N2[C@H](C(=O)O)CO[C@@]2(C)[C@H](C(=O)OC)[C@H]1c1cccc([N+](=O)[O-])c1" > 100 µM (inactive)

Report measured GI50; entry is "COc1ccc(OC)c2c(/C=C/c3ccc(N(C)C)cc3)ccnc12" 3.01 µM (inactive)

Report GI50, nothing else, for this compound: "O=C(CSc1nnc[nH]1)C[P+](c1ccccc1)(c1ccccc1)c1ccccc1" 99.1 µM (inactive)

Consider the compound Cc1cc(=O)oc2c(C3=NN(C=O)C(c4ccccc4)C3)c(O)ccc12 (stereo not given) . State its measured GI50. 82.2 µM (inactive)

Specify measured GI50 for "O=C(N/C=C1\C(=O)Oc2ccccc2C1=O)Oc1ccccc1" . 20 µM (inactive)

Fill in reported GI50 for this entry: "Cc1c(C(=O)/C=C/c2ccccc2O)c(=O)n(-c2ccccc2)n1C" 29 µM (inactive)

Name the recorded GI50 of the item CNC(=O)C1CCCCNC(=O)CCC(NC(=O)OCc2ccccc2)C(=O)N1 (stereo not drawn) (Cbz-Glu-Lys-NHMe; lactam 1-2; configuration not given here) in your answer. > 100 µM (inactive)

Identify GI50 associated with the compound "O=C(CSC1=NCCN1)c1ccccc1" > 100 µM (inactive)
